METHOD_DESCRIPTION: NCI Yeast Anticancer Drug Screen. Data for the rad50 strain (AID 155);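 further: 0% = growth of vehicle-only cultures of the same strain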
TEST_CONTEXT: S. cerevisiae rad50 strain growth inhibition; at 50.0 µM; active compounds read high
This is part of a sample that, as a whole, favours compounds with a hit. Of some 79,000 tested, about 15% had one in any assay.
READOUT: growth inhibition (%)
Use % as the unit, but write only the number.

COMPOUND	growth inhibition, %
CO[C@H]1C[C@H](O[C@H]2CC[C@@]3(C)[C@H](CC[C@@H]4[C@@H]3CC[C@]3(C)[C@@H](C5=CC(=O)OC5)CC[C@]43O)C2)O[C@H](C)[C@H]1O	33.2
O=C(Nc1c(O)[nH]c(=S)[nH]c1=O)c1ccccn1	6.95

## Task Specify reported growth inhibition for the compound shown: N#CC(C#N)=C(C#N)C#N
## Result 14.1

## Task Give the reported growth inhibition for this compound. CCOP(=O)(NCc1ccccc1)c1ccc(N)cc1 (configuration not stated)
## Result 6.05

## Task Name the recorded growth inhibition of the item O=[N+]([O-])c1cccc2ncccc12 in your answer.
## Result -2.95

---

METHOD_DESCRIPTION: NCI Yeast Anticancer Drug Screen. Data for the mec2-1 strain (AID 157)
TEST_CONTEXT: S. cerevisiae mec2-1 strain, at 50.0 µM, active compounds read high
The panel holds about 79,000 compounds, 15% with a hit somewhere; the sample as a whole holds those more often.
This listing pairs molecules with measured growth inhibition.
Field: numeric (%). Do not append units.

MOLECULE	growth inhibition, %
C=CCOCN1c2cc(OC)c([C@@]3(C(=O)OC)C[C@@H]4CN(CCc5c3[nH]c3ccccc53)C[C@](O)(CC)C4)cc2[C@@]23CCN4CC=C[C@@](CC)([C@@H](OC(C)=O)[C@](O)(C(=O)OC)[C@H]12)[C@H]43	-8.75

## Task Kindly indicate its recorded growth inhibition. Item: Clc1cc[c]([Sb]2([c]3ccc(Cl)cc3)([c]3ccc(Cl)cc3)[O]C(C(Cl)(Cl)Cl)[O]2)cc1 (stereo not given)
## Result 98.5

## Task Answer with the recorded growth inhibition for the molecule listed here: O=[N+]([O-])c1ccc(SSC(Cl)(Cl)Cl)cc1
## Result 94.2

## Task Tell me growth inhibition reported for CCCCS(=O)(=O)C(c1ccccc1)c1ccccc1
## Result 97.4

## Task Retrieve growth inhibition measured for c1ccc([Se+](c2ccccc2)c2ccccc2)cc1 and print it.
## Result -46.5

## Task Please report growth inhibition for the following molecule: CCN1CC2CCC1C2 (stereo not given)
## Result -3.05

## Task Note down growth inhibition recorded for CCN(CC)c1cccc(OC(=O)NC)c1
## Result -0.25

## Task Given COC(=O)CN(C)P(=O)(N1CC1)N1CC1 , respond with its growth inhibition.
## Result 7.15

## Task Supply measured growth inhibition of CC(C)(C)P(O)(=S)c1ccccc1 (stereo not given) (tested in a mixture with another compound) in your reply.
## Result 2.1

## Task Tell us which growth inhibition value is on record for CCC[CH2][Sn]([CH2]CCC)([n]1cncn1)[n]1cncn1
## Result 96.1

---

METHOD_DESCRIPTION: NCI Yeast Anticancer Drug Screen. Data for the rad50 strain (AID 155);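 further: 0% = growth of vehicle-only cultures of the same strain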
TEST_CONTEXT: S. cerevisiae rad50 strain growth inhibition; at 50.0 µM; active compounds read high
Compounds without any hit were thinned out: in the full panel of roughly 79,000, 15% have a hit.
Reported growth inhibition values follow for various compounds
A number alone suffices; assume %.

Some compounds with recorded growth inhibition:
COMPOUND	ENDPOINT_RESULT
CC1(C(=O)O)OC1c1ccccc1 (stereo unspecified)	4.2
CC(C)(C)OP(O)(=S)OC(C)(C)C	14.5
COc1cc([As](=O)(O)O)c(OC)cc1N	-9.7
O=C(CN1C(=O)c2ccccc2C1=O)OCCNCCCl	98.2
CN(C)C1=C(N2CC2)C(=O)C(N(C)C)=C(N2CC2)C1=O	17.2

## Task Write down growth inhibition measured for item Cc1c2ccccc2c(C)c2c1cc[n+]1ccccc21
## Result 14.1

## Task Please list growth inhibition recorded for the compound Cc1ccc2c3c(c(=O)oc2c1)[C@H](C)C[C@@](C)(CO)O3
## Result -8.35

## Task Supply measured growth inhibition of CC(C)OP(=O)(OCCCO)C(Cl)Cl (stereo unspecified) in your reply.
## Result 0.35

## Task Answer with the recorded growth inhibition for the compound listed here: NNC(=O)c1ccccc1
## Result -1.8

## Task Identify measured growth inhibition corresponding to OC1[C@@H]2[C@@H](O)CCCN2C[C@@H](O)[C@H]1O (stereo partly specified)
## Result -53.2

## Task Quickly give me recorded growth inhibition for Cc1cc(NC(=O)CCc2ccc(N)cc2)ccc1S(=O)(=O)F
## Result 89.5

## Task Please list growth inhibition recorded for the compound CC(C)=C=CP(=O)(O)c1ccccc1
## Result -25.1
